Data provenance: patent US6573289B1

Target: Rat Steroid C17-20-Lyase (Rattus norvegicus)
Sequence (P11715 1-507): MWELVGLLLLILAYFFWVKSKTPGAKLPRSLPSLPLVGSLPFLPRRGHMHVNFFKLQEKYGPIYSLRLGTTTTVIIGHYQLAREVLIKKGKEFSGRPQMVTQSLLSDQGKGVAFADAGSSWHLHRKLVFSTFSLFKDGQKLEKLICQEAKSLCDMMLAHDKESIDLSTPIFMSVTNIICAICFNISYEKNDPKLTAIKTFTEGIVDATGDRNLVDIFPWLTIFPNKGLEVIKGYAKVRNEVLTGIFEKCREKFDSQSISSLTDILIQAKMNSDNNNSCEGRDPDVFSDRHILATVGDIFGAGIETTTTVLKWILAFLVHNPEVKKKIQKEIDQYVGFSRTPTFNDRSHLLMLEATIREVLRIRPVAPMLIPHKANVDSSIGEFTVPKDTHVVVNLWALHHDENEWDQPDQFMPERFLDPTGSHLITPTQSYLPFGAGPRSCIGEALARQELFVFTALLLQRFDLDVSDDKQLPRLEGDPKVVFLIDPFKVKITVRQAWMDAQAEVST
Where a name gives a salt, the structure may show the parent alone.
Measurement Name: pIC50
Quick note: pIC50 values are minus log10 of concentrations in mol/L.

Problem: Looking for the measured pIC50 of COc1ccc2cc(C(C)(OC)c3c[nH]cn3)ccc2c1 (centres unmarked) [Example 19] , can you help?
Result: 7.46

Problem: // query: CCC(O)(c1ccc2cc(OC)ccc2c1)c1c[nH]cn1 (centres unmarked) [Example 12]
Result: 7.39

Problem: // query: COc1ccc2cc(C(O)(c3c[nH]cn3)C(C)C)ccc2c1F (centres unmarked) [Example 11]
Result: 7.49

Problem: // query: COc1ccc2cc(C(O)(c3c[nH]cn3)C3CC3)ccc2c1 (centres unmarked) [Example 4, Fumarate]
Result: 7.19

Problem: // query: COc1ccc2cc(C(O)(c3c[nH]cn3)C(C)C)ccc2c1 (centres unmarked) [Example 1]
Result: 7.48
